Source listed as ChEMBL document CHEMBL1124474.

species on record: Homo sapiens; experiment: Inhibition of human neutrophil leukotriene B4 induced neutrophil degranulation; format: functional
recorded.endpoint: pIC50
The value called pIC50 is obtained by taking minus log10 of the concentration in mol/L.

Please supply the value of reported pIC50 for the item CCCc1c(OCCCOc2ccc(C(C)=O)c(OC)c2CCC)ccc2c1OC(C(=O)O)CC2 (stereo unspecified)
6.00
